Test system: narcosis
assay.protocol: narcosis potentiating effect on mice, method of Kaergaard
Assay type: in vivo
condition.summary: mice; method of Kaergaard
# cutoff 20 applies to Therapeutical index (narcosis potentiating effect); >= gives true, < gives false

molecule	class.assignment
CCCC(C)(COC(N)=O)COC(N)=O [Meprobamate, reference compound]	false
CCC(=O)N1c2ccccc2-n2c(SC)nnc2N1C(=O)CC	false
CCC(=O)N1c2ccccc2-n2cnnc2N1C(=O)CC	true
CCC(=O)N1Nc2nncn2-c2ccccc21	false
CC(=O)N1c2ccccc2-n2cnnc2N1C(C)=O	false

----------
assay.protocol: in vivo
condition.summary: mouse, po
Listing of recorded LD50 by entry.
observable: LD50

compound	observable	assay.result
CC(=O)Oc1ccccc1C(=O)O [Acetylsalicylic acid, reference compound]	LD50	1500 mg/kg
CCCc1c(O)n2c3nncn3c3ccccc3n2c1=O	LD50	2000 mg/kg
CCCC(C)(COC(N)=O)COC(N)=O [Meprobamate, reference compound]	LD50	1100 mg/kg
CCC(=O)N1c2ccccc2-n2c(SC)nnc2N1C(=O)CC	LD50	1000 mg/kg
CCC(=O)N1c2ccccc2-n2cnnc2N1C(=O)CC	LD50	2000 mg/kg
CCC(=O)N1Nc2nncn2-c2ccccc21	LD50	1750 mg/kg
CC(=O)N1c2ccccc2-n2cnnc2N1C(C)=O	LD50	1100 mg/kg

Cited source for all entries: patent US4316022A
